- SUBJECT_OF_TEST: Hexokinase-4 (Homo sapiens) + Glucokinase regulatory protein (Homo sapiens) (UniProt P35557+Q14397)
- Sequence (P35557 whole entry, looked up): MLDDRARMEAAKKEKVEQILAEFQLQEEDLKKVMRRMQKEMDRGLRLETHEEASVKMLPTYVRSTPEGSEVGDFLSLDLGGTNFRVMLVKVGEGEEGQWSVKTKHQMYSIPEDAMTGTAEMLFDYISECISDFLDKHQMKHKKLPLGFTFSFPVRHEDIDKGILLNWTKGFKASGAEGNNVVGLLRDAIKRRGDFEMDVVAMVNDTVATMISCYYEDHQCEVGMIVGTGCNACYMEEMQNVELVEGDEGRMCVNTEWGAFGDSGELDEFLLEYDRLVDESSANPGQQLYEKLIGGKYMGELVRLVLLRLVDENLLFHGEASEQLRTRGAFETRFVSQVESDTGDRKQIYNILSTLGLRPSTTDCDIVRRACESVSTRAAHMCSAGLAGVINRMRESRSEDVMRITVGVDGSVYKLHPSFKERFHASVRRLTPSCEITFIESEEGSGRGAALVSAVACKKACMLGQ
- Sequence (Q14397 whole entry, looked up): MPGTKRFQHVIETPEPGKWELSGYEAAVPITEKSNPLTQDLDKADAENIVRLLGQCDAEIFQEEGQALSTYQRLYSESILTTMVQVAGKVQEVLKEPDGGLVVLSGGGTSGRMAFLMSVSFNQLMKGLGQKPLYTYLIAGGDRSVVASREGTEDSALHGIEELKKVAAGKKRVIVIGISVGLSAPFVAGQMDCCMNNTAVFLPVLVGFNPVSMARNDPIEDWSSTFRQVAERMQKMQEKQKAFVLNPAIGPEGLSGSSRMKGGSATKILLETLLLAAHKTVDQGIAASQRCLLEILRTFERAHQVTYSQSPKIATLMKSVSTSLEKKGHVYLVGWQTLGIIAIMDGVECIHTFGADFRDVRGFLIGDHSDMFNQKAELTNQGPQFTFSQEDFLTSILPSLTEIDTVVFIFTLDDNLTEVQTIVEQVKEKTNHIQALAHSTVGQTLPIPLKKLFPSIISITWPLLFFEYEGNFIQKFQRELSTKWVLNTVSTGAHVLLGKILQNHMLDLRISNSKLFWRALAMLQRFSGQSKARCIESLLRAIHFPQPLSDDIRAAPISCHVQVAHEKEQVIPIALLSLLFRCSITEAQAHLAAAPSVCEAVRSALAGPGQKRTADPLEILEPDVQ
- EXPERIMENT_DESCRIPTION: qHTS assay for inhibitors of recombinant human GCK-GKRP interaction: Diaphorase-coupled assay (AID 743205)
- PARTICULARS: G6PDH/diaphorase resorufin fluorescence; series mostly up to 57.5 µM
Activity calls are given as the source filed them. Calls follow the shape of the dose curve; as a rule, active = well fitted curve in the direction sought with a large enough effect; inconclusive = small, poorly fitted or top-dose-only effect, or another doubt; inactive = no such curve, though single readings can be large or run the other way.
RECORDED_METRIC: outcome

O=C1c2c(O)ccc(O)c2C(=O)c2c(NCCNCCO)ccc(NCCNCCO)c21    inactive
Cn1cnc2c1c(=O)[nH]c(=O)n2C    inactive
CCc1cccc2c3c([nH]c12)C(CC)(CC(=O)O)OCC3 (stereo not drawn)    inactive

====

- System: W2
- EXPERIMENT_DESCRIPTION: qHTS profiling for inhibitors of Plasmodium falciparum proliferation (AID 504749); also: nearly all actives have a fitted effect of over 60% in size
- PARTICULARS: P. falciparum in erythrocytes, SYBR Green DNA, 72 h; series mostly up to 28.7 µM
- Protocol: NIH National Institute of Allergy and Infectious Diseases [NIAID] NIH Chemical Genomics Center [NCGC] […] Because mature erythrocytes lack DNA, only Plasmodium-derived DNA is detected. NCGC Assay Protocol Summary: The SYBR Green viability assay was adapted from a method described previously (Plouffe et al., 2008). […] The following morning, fluorescence intensity at 485(14) nm excitation and 535(25) nm emission wavelengths was measured on an EnVision (Perkin Elmer) plate reader. […]
Results filed as inconclusive are left out. Active and inactive are the calls of the source. Calls follow the shape of the dose curve; as a rule, active = well fitted inhibition curve with a large enough effect; inconclusive = small, poorly fitted or top-dose-only effect; inactive = flat fitted curve, though single readings scatter.
Please reply with one of these outcomes: active, inactive

Enquiry: What is the recorded call for this compound in the test? "COc1ccc2[nH]cc(CCNC(C)=O)c2c1"
Return: inactive

====

- EXPERIMENT_DESCRIPTION: Quantitative High-Throughput drug screen in 47 multiple myeloma cell lines against the NCATS MIPE library collection: H1112_PLB cell viability assay (AID 1918967; also: nearly all actives have a fitted effect of over 30% in size)
- PARTICULARS: H1112 myeloma cells viability, ATP luminescence, 48 h; series mostly up to 45.8 µM
Inconclusive results are not listed. Calls of active or inactive are those of the source. Calls come from the whole dose curve; as a rule, active = well fitted cell-killing curve with a large enough effect; inconclusive = small, poorly fitted or top-dose-only effect, or effect the other way; inactive = no such curve, though single readings can be large or run the other way.
Response enum: y = active, n = inactive

Solved entries:
CC(C)NCC(O)COc1ccc(CCOCC2CC2)cc1 (stereo unspecified)    n
CN1CCN(CCCN2c3ccccc3Sc3ccc(Cl)cc32)CC1    y
CC(=O)OCC(CCn1cnc2cnc(N)nc21)COC(C)=O    n
O=c1c(-c2ccc(O)cc2)coc2cc(O)cc(O)c12    n
COc1ccc(C2CNC(=O)C2)cc1OC1CCCC1 (stereo unspecified)    n
NS(=O)(=O)c1cc2c(cc1Cl)NCNS2(=O)=O    y
O=c1c(O)c(-c2ccc(O)c(O)c2)oc2cc(O)cc(O)c12    y
O=c1[nH]cc(F)c(=O)[nH]1    n

Enquiry: Recorded call for "N[C@@H](Cc1c[nH]c2ccc(O)cc12)C(=O)O" ?
Return: n

Enquiry: Name the outcome recorded for NC(CO)C(=O)NNCc1ccc(O)c(O)c1O (stereo unspecified) in the assay.
Return: n

Enquiry: Give the logged outcome of this assay for the following compound: "O=C(c1ccc(F)cc1)C1CCN(CCn2c(=O)[nH]c3ccccc3c2=O)CC1"
Return: n

Enquiry: Tell me the assay call for CC(C)NCC(O)c1ccc(O)c(O)c1 (stereo unspecified) please.
Return: n

Enquiry: I would be grateful if you could indicate the recorded call for "CN(C)C(=N)N=C(N)N" .
Return: n

Enquiry: What did the test return for "Nc1nc2c(ncn2COC(CO)CO)c(=O)[nH]1" ?
Return: y

Where do these numbers come from? They come from PubChem BioAssay (NCATS).
